biological target: Mitogen-activated protein kinase 13 (Homo sapiens); experiment: Inhibition of human p38-delta by discoverX kinome scan assay
Sequence (O15264 whole entry): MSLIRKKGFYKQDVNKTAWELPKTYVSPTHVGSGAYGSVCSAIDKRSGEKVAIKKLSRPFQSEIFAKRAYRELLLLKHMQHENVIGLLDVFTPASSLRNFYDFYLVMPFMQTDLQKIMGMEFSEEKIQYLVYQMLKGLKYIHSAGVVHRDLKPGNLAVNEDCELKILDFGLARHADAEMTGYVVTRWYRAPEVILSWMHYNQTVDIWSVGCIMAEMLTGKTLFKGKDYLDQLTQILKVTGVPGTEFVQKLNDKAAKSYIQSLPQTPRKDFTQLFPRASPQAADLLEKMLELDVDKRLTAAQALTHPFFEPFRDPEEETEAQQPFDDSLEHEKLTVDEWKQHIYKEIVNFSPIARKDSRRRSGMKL
quantity-measured: IC50

**Q:** In one line, give reported IC50 of the entry Cc1cn(CCN2CCN(c3ccccc3-c3cc(C#N)cc(C(=O)NCCCN4CCCC4)c3)CC2)c2ccccc12 .
**A:** > 20 µM

---

target: Serine/threonine-protein kinase MRCK beta (Homo sapiens)
Sequence (Q9Y5S2 whole entry): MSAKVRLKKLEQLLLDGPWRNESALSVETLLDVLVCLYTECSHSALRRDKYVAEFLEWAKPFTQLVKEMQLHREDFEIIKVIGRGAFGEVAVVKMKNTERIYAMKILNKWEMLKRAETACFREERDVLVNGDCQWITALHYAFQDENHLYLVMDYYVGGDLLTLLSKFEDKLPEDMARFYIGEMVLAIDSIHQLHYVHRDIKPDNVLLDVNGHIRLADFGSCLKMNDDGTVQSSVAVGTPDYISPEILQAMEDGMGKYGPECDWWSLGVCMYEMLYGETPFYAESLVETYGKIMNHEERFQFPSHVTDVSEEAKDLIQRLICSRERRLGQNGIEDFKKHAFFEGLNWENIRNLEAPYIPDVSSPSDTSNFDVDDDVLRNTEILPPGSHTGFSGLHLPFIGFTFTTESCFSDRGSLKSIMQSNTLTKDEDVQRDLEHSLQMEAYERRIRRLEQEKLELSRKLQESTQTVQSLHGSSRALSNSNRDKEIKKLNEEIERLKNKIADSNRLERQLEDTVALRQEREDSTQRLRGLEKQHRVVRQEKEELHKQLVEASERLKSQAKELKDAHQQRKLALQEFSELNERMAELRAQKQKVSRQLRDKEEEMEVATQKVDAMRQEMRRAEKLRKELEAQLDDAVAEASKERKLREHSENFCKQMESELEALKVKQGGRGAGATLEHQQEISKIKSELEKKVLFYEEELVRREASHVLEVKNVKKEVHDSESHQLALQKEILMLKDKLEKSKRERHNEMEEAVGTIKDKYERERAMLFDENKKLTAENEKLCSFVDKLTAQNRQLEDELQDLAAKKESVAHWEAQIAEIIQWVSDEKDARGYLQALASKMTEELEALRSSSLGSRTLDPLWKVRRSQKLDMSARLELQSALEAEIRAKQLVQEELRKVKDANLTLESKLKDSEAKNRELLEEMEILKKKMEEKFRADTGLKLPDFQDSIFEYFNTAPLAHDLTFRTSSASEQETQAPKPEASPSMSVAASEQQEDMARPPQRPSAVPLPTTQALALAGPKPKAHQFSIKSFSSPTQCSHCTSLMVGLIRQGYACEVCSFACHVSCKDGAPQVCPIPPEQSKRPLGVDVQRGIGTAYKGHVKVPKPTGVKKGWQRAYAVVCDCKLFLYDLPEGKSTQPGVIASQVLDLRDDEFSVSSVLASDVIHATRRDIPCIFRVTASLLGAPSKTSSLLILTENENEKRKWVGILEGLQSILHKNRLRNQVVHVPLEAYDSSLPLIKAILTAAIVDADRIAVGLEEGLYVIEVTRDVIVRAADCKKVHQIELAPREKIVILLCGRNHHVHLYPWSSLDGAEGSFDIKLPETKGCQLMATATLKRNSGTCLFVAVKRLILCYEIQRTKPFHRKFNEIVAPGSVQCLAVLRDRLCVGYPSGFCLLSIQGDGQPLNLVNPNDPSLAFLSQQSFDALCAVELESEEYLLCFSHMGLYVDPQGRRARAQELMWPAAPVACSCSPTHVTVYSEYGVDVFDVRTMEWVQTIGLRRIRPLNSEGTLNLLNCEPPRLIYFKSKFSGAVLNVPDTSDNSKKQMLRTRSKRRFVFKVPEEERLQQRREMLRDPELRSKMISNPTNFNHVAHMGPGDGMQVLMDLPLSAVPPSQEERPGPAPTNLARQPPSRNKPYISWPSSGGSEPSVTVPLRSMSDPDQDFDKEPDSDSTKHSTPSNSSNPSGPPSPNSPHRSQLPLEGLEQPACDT
pIC50: −log10 of the molar value.
quantity-measured: pIC50

**Q:** Please report the measured pIC50 for Cc1cn(CCN2CCN(c3ccccc3-c3cc(C#N)cc(C(=O)NCCCN4CCCC4)c3)CC2)c2ccccc12
**A:** < 4.70

---

experiment: Inhibition of human ABL1 pT315I mutant by discoverX kinome scan assay
pIC50: −log10 of the molar value.
quantity-measured: pIC50

**Q:** Could you please provide reported pIC50 for Cc1cn(CCN2CCN(c3ccccc3-c3cc(C#N)cc(C(=O)NCCCN4CCCC4)c3)CC2)c2ccccc12 ? Thanks!
**A:** < 4.70

---

Molecular target: Serine/threonine-protein kinase Nek2 (Homo sapiens)
Sequence (P51955 whole entry): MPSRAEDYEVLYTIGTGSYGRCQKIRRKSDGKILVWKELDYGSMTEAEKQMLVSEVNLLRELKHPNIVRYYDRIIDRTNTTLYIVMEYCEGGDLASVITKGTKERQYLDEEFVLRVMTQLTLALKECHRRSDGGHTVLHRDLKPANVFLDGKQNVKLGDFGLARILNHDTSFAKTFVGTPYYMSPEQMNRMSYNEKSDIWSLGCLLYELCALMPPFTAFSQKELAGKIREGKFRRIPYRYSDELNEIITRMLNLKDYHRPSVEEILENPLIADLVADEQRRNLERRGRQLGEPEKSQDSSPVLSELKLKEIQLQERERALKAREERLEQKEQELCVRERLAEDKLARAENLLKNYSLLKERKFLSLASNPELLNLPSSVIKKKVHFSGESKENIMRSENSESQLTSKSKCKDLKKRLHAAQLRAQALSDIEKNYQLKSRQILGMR
quantity-measured: IC50

**Q:** Report IC50 on Serine/threonine-protein kinase Nek2 (Homo sapiens) for this entry: Cc1cn(CCN2CCN(c3ccccc3-c3cc(C#N)cc(C(=O)NCCCN4CCCC4)c3)CC2)c2ccccc12
**A:** > 20 µM

---

biological target: Phosphatidylinositol 4,5-bisphosphate 3-kinase catalytic subunit beta isoform (Homo sapiens); test: Inhibition of human PIK3CB by discoverX kinome scan assay
Sequence (P42338 whole entry, canonical isoform): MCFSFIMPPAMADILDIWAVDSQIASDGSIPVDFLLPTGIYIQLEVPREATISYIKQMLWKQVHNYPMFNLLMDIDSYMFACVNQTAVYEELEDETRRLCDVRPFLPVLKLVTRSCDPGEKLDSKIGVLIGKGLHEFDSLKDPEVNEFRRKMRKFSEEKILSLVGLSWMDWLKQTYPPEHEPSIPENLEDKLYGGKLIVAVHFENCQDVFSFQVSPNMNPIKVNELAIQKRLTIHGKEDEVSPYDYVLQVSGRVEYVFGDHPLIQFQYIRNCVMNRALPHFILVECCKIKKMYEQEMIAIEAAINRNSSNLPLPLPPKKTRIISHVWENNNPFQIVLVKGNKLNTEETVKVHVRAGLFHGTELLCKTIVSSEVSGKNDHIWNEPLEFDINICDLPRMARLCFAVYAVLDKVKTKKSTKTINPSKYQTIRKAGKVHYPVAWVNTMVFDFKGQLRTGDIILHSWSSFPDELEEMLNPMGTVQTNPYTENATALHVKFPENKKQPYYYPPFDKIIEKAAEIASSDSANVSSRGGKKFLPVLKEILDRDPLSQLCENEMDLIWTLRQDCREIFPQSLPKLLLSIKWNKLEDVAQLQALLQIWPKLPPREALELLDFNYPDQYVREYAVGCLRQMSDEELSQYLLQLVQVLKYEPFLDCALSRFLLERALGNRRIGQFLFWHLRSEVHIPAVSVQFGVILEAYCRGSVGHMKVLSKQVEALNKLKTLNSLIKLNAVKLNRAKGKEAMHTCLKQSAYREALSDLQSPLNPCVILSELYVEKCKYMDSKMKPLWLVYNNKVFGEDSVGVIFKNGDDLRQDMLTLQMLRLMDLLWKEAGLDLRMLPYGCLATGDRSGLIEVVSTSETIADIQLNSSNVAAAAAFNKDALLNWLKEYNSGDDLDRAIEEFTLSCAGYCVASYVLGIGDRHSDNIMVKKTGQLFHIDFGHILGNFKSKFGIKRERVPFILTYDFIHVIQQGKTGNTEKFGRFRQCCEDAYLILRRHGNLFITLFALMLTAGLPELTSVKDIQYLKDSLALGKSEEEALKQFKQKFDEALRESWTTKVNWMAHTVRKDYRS
quantity-measured: IC50

**Q:** Recall and state the measured IC50 for Cc1cn(CCN2CCN(c3ccccc3-c3cc(C#N)cc(C(=O)NCCCN4CCCC4)c3)CC2)c2ccccc12 .
**A:** > 20 µM

---

target: Protein kinase C eta type (Homo sapiens, UniProt P24723)
Sequence (P24723 whole entry): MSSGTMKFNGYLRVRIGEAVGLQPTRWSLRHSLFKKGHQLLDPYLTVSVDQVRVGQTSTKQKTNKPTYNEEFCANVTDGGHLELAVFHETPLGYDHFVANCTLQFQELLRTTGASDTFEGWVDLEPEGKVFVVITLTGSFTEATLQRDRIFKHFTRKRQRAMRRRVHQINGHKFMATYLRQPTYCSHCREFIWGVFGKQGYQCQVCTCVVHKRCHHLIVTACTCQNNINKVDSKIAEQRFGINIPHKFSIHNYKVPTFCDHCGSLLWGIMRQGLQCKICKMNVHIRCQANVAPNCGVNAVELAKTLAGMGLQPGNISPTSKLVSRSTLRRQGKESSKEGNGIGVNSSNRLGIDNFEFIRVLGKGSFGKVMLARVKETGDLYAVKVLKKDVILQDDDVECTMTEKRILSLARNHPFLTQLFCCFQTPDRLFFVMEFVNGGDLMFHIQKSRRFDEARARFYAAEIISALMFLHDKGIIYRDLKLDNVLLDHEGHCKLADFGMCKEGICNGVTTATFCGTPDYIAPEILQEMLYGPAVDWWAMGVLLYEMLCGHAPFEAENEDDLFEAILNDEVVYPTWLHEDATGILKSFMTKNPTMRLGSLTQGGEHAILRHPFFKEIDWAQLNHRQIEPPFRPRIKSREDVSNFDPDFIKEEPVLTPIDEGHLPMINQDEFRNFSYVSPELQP
quantity-measured: IC50

**Q:** Tell us which IC50 value is on record for Cc1cn(CCN2CCN(c3ccccc3-c3cc(C#N)cc(C(=O)NCCCN4CCCC4)c3)CC2)c2ccccc12
**A:** > 20 µM
